Field: IC50. Provide a value for each of the molecules that follow.
STUDY SYSTEM: thrombin (Homo sapiens)
Construct: purchased Roche, Basle (Thrombin Reagent)
METHOD SUMMARY: biochemical
Type: biochemical
EXPERIMENTAL PARAMETERS: chromogenic substrate S-2238, antithrombin III, plasma, pH 8.4, 37° C.; read-out: Anticoagulative Activity IC50 Thrombin

Enquiry: # return recorded IC50 for input O=C(NC[C@H](OS(=O)(=O)O)[C@@H](OS(=O)(=O)O)[C@H](OS(=O)(=O)O)[C@@H](COS(=O)(=O)O)OS(=O)(=O)O)c1ccc(S(=O)(=O)c2ccc(C(=O)NC[C@H](OS(=O)(=O)O)[C@@H](OS(=O)(=O)O)[C@H](OS(=O)(=O)O)[C@@H](COS(=O)(=O)O)OS(=O)(=O)O)cc2)cc1
Return: > 698 µM

Enquiry: # return recorded IC50 for input O=C(NC[C@H](OS(=O)(=O)O)[C@@H](OS(=O)(=O)O)[C@H](OS(=O)(=O)O)[C@@H](COS(=O)(=O)O)OS(=O)(=O)O)c1ccc(CCc2ccc(C(=O)NC[C@H](OS(=O)(=O)O)[C@@H](OS(=O)(=O)O)[C@H](OS(=O)(=O)O)[C@@H](COS(=O)(=O)O)OS(=O)(=O)O)cc2)cc1
Return: > 716 µM

Enquiry: # return recorded IC50 for input CN(C[C@H](OS(=O)(=O)O)[C@@H](OS(=O)(=O)O)[C@H](OS(=O)(=O)O)[C@@H](COS(=O)(=O)O)OS(=O)(=O)O)C(=O)c1ccc2c(c1)C(=O)c1cc(C(=O)N(C)C[C@H](OS(=O)(=O)O)[C@@H](OS(=O)(=O)O)[C@H](OS(=O)(=O)O)[C@@H](COS(=O)(=O)O)OS(=O)(=O)O)ccc1-2
Return: > 703 µM

Enquiry: # return recorded IC50 for input O=C(NC[C@H](OS(=O)(=O)O)[C@@H](OS(=O)(=O)O)[C@H](OS(=O)(=O)O)[C@@H](COS(=O)(=O)O)OS(=O)(=O)O)c1cccc(C(=O)NC[C@H](OS(=O)(=O)O)[C@@H](OS(=O)(=O)O)[C@H](OS(=O)(=O)O)[C@@H](COS(=O)(=O)O)OS(=O)(=O)O)c1
Return: > 773 µM

---

STUDY SYSTEM: thrombin (Homo sapiens, UniProt P00734)
Construct: purchased Roche, Basle (Thrombin Reagent)
METHOD SUMMARY: biochemical
Format: biochemical
EXPERIMENTAL PARAMETERS: chromogenic substrate S-2238, antithrombin III, plasma, pH 8.4, 37° C.; read-out: Anticoagulative Activity IC50 Thrombin
QUANTITY: IC50

Enquiry: # return recorded IC50 for input O=C(NC[C@H](OS(=O)(=O)O)[C@@H](OS(=O)(=O)O)[C@H](OS(=O)(=O)O)[C@@H](COS(=O)(=O)O)OS(=O)(=O)O)c1ccc(/C=C/c2ccc(C(=O)NC[C@H](OS(=O)(=O)O)[C@@H](OS(=O)(=O)O)[C@H](OS(=O)(=O)O)[C@@H](COS(=O)(=O)O)OS(=O)(=O)O)cc2Cl)cc1
Return: > 699 µM

Enquiry: # return recorded IC50 for input CC(/C=C/C=C(\C)C(=O)NC[C@H](OS(=O)(=O)O)[C@@H](OS(=O)(=O)O)[C@H](OS(=O)(=O)O)[C@@H](COS(=O)(=O)O)OS(=O)(=O)O)=C\C=C\C=C(C)\C=C\C=C(/C)C(=O)NC[C@H](OS(=O)(=O)O)[C@@H](OS(=O)(=O)O)[C@H](OS(=O)(=O)O)[C@@H](COS(=O)(=O)O)OS(=O)(=O)O
Return: > 687 µM

Enquiry: # return recorded IC50 for input C[C@H](OS(=O)(=O)O)[C@H](OS(=O)(=O)O)[C@@H](OS(=O)(=O)O)[C@H](CNC(=O)c1ccc(/C=C\c2ccc(C(=O)NC[C@H](OS(=O)(=O)O)[C@H](OS(=O)(=O)O)[C@@H](OS(=O)(=O)O)[C@H](C)OS(=O)(=O)O)cc2)cc1)OS(=O)(=O)O
Return: > 831 µM

---

STUDY SYSTEM: Factor Xa (Bos taurus)
METHOD SUMMARY: Inhibition of Factor Xa in the chromogenic substrate assay (blood coagulation inhibition)
Type: biochemical
EXPERIMENTAL PARAMETERS: chromogenic substrate S-2222, antithrombin III, plasma; read-out: Anticoagulative Activity IC50 Factor Xa
Field: IC50. Provide a value for each of the compounds that follow.

Enquiry: # return recorded IC50 for input O=C(/C=C/C(=O)Nc1ccc(NC(=O)NC[C@H](OS(=O)(=O)O)[C@@H](OS(=O)(=O)O)[C@H](OS(=O)(=O)O)[C@@H](COS(=O)(=O)O)OS(=O)(=O)O)cc1)Nc1ccc(NC(=O)NC[C@H](OS(=O)(=O)O)[C@@H](OS(=O)(=O)O)[C@H](OS(=O)(=O)O)[C@@H](COS(=O)(=O)O)OS(=O)(=O)O)cc1
Return: > 662 µM

Enquiry: # return recorded IC50 for input O=C(Nc1ccc(OC[C@@H](OS(=O)(=O)O)[C@H](OS(=O)(=O)O)[C@@H](COS(=O)(=O)O)OS(=O)(=O)O)cc1)c1cccc(C(=O)Nc2ccc(OC[C@@H](OS(=O)(=O)O)[C@H](OS(=O)(=O)O)[C@@H](COS(=O)(=O)O)OS(=O)(=O)O)cc2)c1
Return: > 795 µM

Enquiry: # return recorded IC50 for input CC(/C=C/C=C(\C)C(=O)NC[C@H](OS(=O)(=O)O)[C@@H](OS(=O)(=O)O)[C@H](OS(=O)(=O)O)[C@@H](COS(=O)(=O)O)OS(=O)(=O)O)=C\C=C\C=C(C)\C=C\C=C(/C)C(=O)NC[C@H](OS(=O)(=O)O)[C@@H](OS(=O)(=O)O)[C@H](OS(=O)(=O)O)[C@@H](COS(=O)(=O)O)OS(=O)(=O)O
Return: > 687 µM

---

STUDY SYSTEM: Factor Xa (Bos taurus, UniProt P00743)
Sequence (P00743 41-180 limits assumed): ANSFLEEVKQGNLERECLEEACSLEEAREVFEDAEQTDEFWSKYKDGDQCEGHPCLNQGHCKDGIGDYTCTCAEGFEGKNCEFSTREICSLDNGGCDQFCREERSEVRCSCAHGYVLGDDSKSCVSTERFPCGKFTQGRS
METHOD SUMMARY: Inhibition of Factor Xa in the chromogenic substrate assay (blood coagulation inhibition)
Assay type: biochemical
EXPERIMENTAL PARAMETERS: chromogenic substrate S-2222, antithrombin III, plasma; read-out: Anticoagulative Activity IC50 Factor Xa
pIC50: −log10 of the molar value.
QUANTITY: pIC50

Enquiry: Find the measured pIC50 of O=C(NC[C@H](OS(=O)(=O)O)[C@@H](OS(=O)(=O)O)[C@H](OS(=O)(=O)O)[C@@H](COS(=O)(=O)O)OS(=O)(=O)O)c1ccc2cc(C(=O)NC[C@H](OS(=O)(=O)O)[C@@H](OS(=O)(=O)O)[C@H](OS(=O)(=O)O)[C@@H](COS(=O)(=O)O)OS(=O)(=O)O)ccc2c1 with Factor Xa (Bos taurus, UniProt P00743) as test system.
Return: < 3.13

Enquiry: Find the measured pIC50 of O=C(/C=C\C(=O)Nc1cc(COc2ccc(-c3ccccc3)cc2)cc(NC(=O)/C=C\C(=O)NC[C@H](OS(=O)(=O)O)[C@@H](OS(=O)(=O)O)[C@H](OS(=O)(=O)O)[C@@H](COS(=O)(=O)O)OS(=O)(=O)O)c1)NC[C@H](OS(=O)(=O)O)[C@@H](OS(=O)(=O)O)[C@H](OS(=O)(=O)O)[C@@H](COS(=O)(=O)O)OS(=O)(=O)O with Factor Xa (Bos taurus, UniProt P00743) as test system.
Return: < 3.21

Enquiry: Find the measured pIC50 of O=C(NC[C@H](OS(=O)(=O)O)[C@@H](OS(=O)(=O)O)[C@H](OS(=O)(=O)O)[C@@H](COS(=O)(=O)O)OS(=O)(=O)O)c1cccc(C(=O)NC[C@H](OS(=O)(=O)O)[C@@H](OS(=O)(=O)O)[C@H](OS(=O)(=O)O)[C@@H](COS(=O)(=O)O)OS(=O)(=O)O)c1 with Factor Xa (Bos taurus, UniProt P00743) as test system.
Return: < 3.11
